Reported IC50 (ug/ml), pseudovirus neutralization, TZM-bl assay values for the following binders.
Target: HIV-1 92RW020 envelope glycoprotein (Env), on pseudovirus (HIV-1 isolate 92RW020 (clade A))
Assay: cell-based or functional assay
Write down the numeric answer in µg/mL and omit the unit.

>>> endpoint_value("1469_M23 (PG16) (TCN-118) (antibody, V domains shown) VH: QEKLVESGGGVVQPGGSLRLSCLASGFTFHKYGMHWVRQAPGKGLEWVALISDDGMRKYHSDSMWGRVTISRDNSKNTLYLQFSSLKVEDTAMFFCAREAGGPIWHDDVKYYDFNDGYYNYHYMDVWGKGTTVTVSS VL: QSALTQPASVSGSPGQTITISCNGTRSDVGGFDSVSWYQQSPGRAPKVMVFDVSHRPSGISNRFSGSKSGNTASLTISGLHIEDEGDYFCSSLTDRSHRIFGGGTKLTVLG")
0.05
>>> endpoint_value("1489_I13 (PG16) (TCN-120) (antibody, V domains shown) VH: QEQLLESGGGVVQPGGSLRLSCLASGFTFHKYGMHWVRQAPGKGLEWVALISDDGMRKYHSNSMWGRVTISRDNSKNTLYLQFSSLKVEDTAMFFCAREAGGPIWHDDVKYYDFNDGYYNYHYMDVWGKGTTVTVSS VL: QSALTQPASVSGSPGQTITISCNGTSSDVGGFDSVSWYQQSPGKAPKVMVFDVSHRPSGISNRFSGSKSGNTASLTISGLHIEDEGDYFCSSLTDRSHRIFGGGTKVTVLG")
0.03

The record that follows has no IC50 (ug/ml), pseudovirus neutralization, TZM-bl assay shown yet.
Tell me the measured IC50 (ug/ml), pseudovirus neutralization, TZM-bl assay of 1503_H05 (PG16) (TCN-119) (antibody, V domains shown) VH: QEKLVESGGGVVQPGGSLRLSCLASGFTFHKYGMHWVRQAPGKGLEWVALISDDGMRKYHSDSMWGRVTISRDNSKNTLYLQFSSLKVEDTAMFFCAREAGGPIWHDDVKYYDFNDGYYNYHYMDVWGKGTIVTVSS VL: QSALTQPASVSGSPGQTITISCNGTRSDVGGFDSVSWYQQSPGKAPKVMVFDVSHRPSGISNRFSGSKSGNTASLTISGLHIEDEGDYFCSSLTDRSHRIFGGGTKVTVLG , please.
0.02
